Please go through the items and note down their EC50.
# TGT: T1, human PRLR ECD-Fc fusion protein (human, UniProt P16471 25-233)
# T1 construct: not shown: Fc region (captured by goat anti-human Fc)
# T1 sequence: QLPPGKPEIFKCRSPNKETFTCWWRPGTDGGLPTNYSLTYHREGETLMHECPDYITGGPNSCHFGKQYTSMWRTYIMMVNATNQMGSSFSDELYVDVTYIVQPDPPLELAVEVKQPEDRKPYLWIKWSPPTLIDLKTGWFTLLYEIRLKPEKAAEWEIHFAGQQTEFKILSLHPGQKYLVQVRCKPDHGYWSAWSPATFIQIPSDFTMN
# ASSAY_SUMMARY: ELISA on ECD
Form entry: value (nM) — number only.

Req: Look at this binder and give its reported EC50. Ab13 (antibody, V domains shown, murine monoclonal, isotype G2a; also called murine Ab13) VH: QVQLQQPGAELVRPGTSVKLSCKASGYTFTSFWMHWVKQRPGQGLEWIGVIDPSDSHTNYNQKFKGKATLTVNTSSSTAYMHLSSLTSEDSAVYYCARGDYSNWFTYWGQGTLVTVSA VL: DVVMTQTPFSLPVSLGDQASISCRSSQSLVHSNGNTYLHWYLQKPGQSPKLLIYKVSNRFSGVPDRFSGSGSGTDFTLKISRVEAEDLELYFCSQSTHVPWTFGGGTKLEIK
Resp: 0.07

Req: Look at this binder and give its reported EC50. chAb6 (antibody, human IgG1, kappa, V domains shown, chimeric, murine variable and human G1/kappa constant regions) VH: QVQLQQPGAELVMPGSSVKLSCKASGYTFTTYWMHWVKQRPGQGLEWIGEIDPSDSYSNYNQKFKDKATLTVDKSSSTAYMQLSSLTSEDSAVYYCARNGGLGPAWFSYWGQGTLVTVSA VL: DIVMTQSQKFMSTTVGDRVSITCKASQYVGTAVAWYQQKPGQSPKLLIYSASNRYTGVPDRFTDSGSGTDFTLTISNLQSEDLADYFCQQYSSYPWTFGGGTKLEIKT
Resp: 0.103

Req: Look at this binder and give its reported EC50. Ab20 (antibody, human IgG1, kappa, V domains shown, humanized from Ab6; G1; also called Ab1 HC.1a and Ab1 LC.2) VH: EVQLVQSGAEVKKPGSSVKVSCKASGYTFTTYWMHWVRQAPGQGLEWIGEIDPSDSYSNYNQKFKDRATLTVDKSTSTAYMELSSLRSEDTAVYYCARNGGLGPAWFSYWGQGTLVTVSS VL: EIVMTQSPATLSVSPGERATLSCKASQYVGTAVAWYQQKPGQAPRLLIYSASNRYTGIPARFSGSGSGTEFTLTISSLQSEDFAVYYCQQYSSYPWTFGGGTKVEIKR
Resp: 0.0836
